Reported EC50 values follow for various compounds
- System: L5178Y
- Measurement description: Cytotoxicity against mouse L5178Y cells
- Type: functional
- Test context: read-out: ED50 (the source's name)
Assay readout: EC50 (mg/L)

COc1c(C)c(O)c(C(C)=O)c(O)c1Cc1c(O)c2c(c(C(C)=O)c1O)OC(C)(C)C=C2 [MALLOTOCHROMENE] :: 1.25
C=C(C)C(O)Cc1c(O)c(Cc2c(O)c(C(C)=O)c(O)c(C)c2OC)c(O)c(C(C)=O)c1O (racemic) :: 2.45
COc1c(C)c(O)c(C(C)=O)c(O)c1Cc1c(O)c(CC=C(C)C)c(O)c(C(C)=O)c1O [MALLOTOJAPONIN] :: 0.74
C=C(C)C(O)Cc1c(O)c(Cc2c(O)c(C(C)=O)c(O)c(C)c2OC)c(O)c(C(=O)CCC)c1O (racemic) [MALLOTOLERIN] :: 0.82

====

Reported EC50 values follow for various molecules
- Tested on: KB
- Measurement description: Cytotoxicity against human KB cells
- Format: functional
- Test context: read-out: ED50 (the source's name)
Assay readout: EC50

C=C(C)C(O)Cc1c(O)c(Cc2c(O)c(C(C)=O)c(O)c(C)c2OC)c(O)c(C(C)=O)c1O (racemic) :: 1.22 µg/mL
COc1c(C)c(O)c(C(C)=O)c(O)c1Cc1c(O)c(CC=C(C)C)c(O)c(C(C)=O)c1O :: 0.58 µg/mL
COc1c(C)c(O)c(C(C)=O)c(O)c1Cc1c(O)c2c(c(C(C)=O)c1O)OC(C)(C)C(O)C2 (racemic) :: > 100 µg/mL
COc1c(C)c(O)c(C(C)=O)c(O)c1Cc1c(O)c2c(c(C(C)=O)c1O)OC(C)(C)C=C2 :: 2.1 µg/mL
C=C(C)C(O)Cc1c(O)c(Cc2c(O)c(C(C)=O)c(O)c(C)c2OC)c(O)c(C(=O)CCC)c1O (racemic) :: 0.95 µg/mL

Measured values drawn from ChEMBL document CHEMBL1149003 for this set.
